Field: Growth Rate. Provide a value for each of the molecules that follow.
system: U2OS; assay: Incucyte cell viability with U2OS; format: toxicity, cell-based; settings: human, 12 h, 10 µM, compound concentration 10 uM, replicate number 2, timepoint 12 hours; also: unitless GR value; below 1 slowed growth and below 0 cell loss
One number for each entry.

Examples with answers:
CN(C(=O)/C=C/c1ccoc1)[C@@H]1CC[C@@]2(O)[C@H]3Cc4ccc(O)c5c4[C@@]2(CCN3CC2CC2)[C@H]1O5 [NALFURAFINE]    1
O=c1ccn([C@@H]2O[C@H](COP(=O)([O-])OP(=O)([O-])OP(=O)([O-])O)[C@@H](O)[C@H]2O)c(=O)[nH]1.[Na+].[Na+].[Na+]    0.94
COc1cc(Nc2ncc3c(n2)-c2ccc(Cl)cc2C(c2c(F)cccc2OC)=NC3)ccc1C(=O)O [ALISERTIB]    0.54

Could I get Growth Rate for every one of these entries?
1. O=C(Nc1cc(C(F)(F)F)ccc1N1CCN(Cc2ccccn2)CC1)c1ccc(-c2ccncc2)o1
2. C[C@H]1[C@H]2CC[C@H]3[C@@H]4CC=C5C[C@@H](N(C)C)CC[C@]5(C)[C@H]4CC[C@]23CN1C [CONESSINE]
3. CSc1cc2c(cc1C(F)(F)F)N(C(=O)Nc1cccnc1)CC2
4. CCOC(=O)Nc1cc(-c2ccc(C)c(NS(C)(=O)=O)c2)nn2c(C)nnc12

Outgoing:
1: 0.93; 2: 0.89; 3: 0.94; 4: 0.95

List the reported Growth Rate of each molecule below.
1. CC(C)c1cc(Oc2c(Cl)cc(-n3nc(C#N)c(=O)[nH]c3=O)cc2Cl)n[nH]c1=O [RESMETIROM]
2. C[C@@H](OC[C@@]1(c2ccccc2)CC[C@]2(CCC(=O)N2)CN1)c1cc(C(F)(F)F)cc(C(F)(F)F)c1 [ROLAPITANT]

Outgoing:
[0.75, 0.49]

For every item below, please supply its Growth Rate.
1. CCCCC(=O)N(Cc1ccc(-c2ccccc2-c2nnn[nH]2)cc1)[C@H](C(=O)O)C(C)C
2. COc1cc(OC)cc(C(=O)NNC(=O)Nc2cccc3ccccc23)c1
3. CC(C)N(CCCCOCC(=O)NS(C)(=O)=O)c1cnc(-c2ccccc2)c(-c2ccccc2)n1 [SELEXIPAG]

Outgoing:
1: 0.99; 2: 0.87; 3: 0.8

Look at each molecule and report its Growth Rate.
1. O=C(O)c1cccc(/C=C2/C[C@@H]3[C@@H](/C=C/[C@H](O)C4CCCCC4)[C@H](O)C[C@@H]3O2)c1
2. CN(C)CCN(Cc1ccc(-c2ccc(CNCCc3ccccc3)cc2)cc1)C(=O)CCC1CCCC1.Cl.Cl

Outgoing:
0.94
-0.81

Report Growth Rate for each item below.
1. COc1ccc2c(c1OCc1ccccc1)C[C@@H](C(=O)O)N(C(=O)C(c1ccccc1)c1ccccc1)C2 [OLODANRIGAN]
2. Cc1cc(Nc2ncc(Cl)c(Nc3ccccc3S(=O)(=O)C(C)C)n2)c(OC(C)C)cc1C1CCNCC1 [CERITINIB]
3. CCCOc1ccc2[nH]cc(C3=CCNCC3)c2n1.Cl
4. COc1ccc(NC(=O)c2ccc(-c3ccc(-c4noc(C)n4)cc3C)cc2)cc1OCCN(C)C.Cl
5. CCCCCCCCc1ccc(CCC(N)(CO)CO)cc1 [FINGOLIMOD]

Outgoing:
1. 0.89
2. -0.74
3. 0.93
4. 0.51
5. -0.31
